Target: hVR1 (Homo sapiens, UniProt Q8NER1)
Sequence (Q8NER1 whole entry): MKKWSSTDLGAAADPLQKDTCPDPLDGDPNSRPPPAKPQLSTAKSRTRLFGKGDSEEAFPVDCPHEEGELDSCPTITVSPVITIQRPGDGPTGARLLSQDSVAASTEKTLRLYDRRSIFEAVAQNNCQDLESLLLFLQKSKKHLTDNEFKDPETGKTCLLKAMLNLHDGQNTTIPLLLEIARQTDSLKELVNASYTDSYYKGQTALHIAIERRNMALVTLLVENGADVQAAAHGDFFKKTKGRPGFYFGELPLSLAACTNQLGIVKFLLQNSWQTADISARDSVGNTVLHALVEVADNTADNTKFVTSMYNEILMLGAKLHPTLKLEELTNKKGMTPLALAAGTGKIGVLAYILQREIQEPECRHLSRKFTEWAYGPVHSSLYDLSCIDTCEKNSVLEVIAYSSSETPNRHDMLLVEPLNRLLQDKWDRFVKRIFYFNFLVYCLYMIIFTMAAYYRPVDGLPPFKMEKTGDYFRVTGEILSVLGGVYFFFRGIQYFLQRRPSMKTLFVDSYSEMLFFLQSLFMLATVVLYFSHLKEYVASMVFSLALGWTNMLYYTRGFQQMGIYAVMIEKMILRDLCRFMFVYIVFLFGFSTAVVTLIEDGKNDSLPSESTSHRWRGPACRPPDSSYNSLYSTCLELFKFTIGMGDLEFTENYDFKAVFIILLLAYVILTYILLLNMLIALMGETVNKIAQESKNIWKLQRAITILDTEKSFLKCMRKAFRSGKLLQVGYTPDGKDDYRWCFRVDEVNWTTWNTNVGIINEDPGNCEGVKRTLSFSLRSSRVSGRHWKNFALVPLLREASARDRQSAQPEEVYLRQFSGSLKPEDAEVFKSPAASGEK
Assay: Human VR1 (hVR1) Functional Assay (FLIPR intracellular calcium, capsaicin challenge)
Details: capsaicin 0.030 μM; HEK293 cells expressing hVR1
REPORTED PROPERTY: IC50 (nM)

COMPOUND: CNS(=O)(=O)c1ccccc1-c1ccc2[nH]c(/C=C/c3cc(C(F)(F)F)ccc3C(F)(F)F)nc2c1 [Cpd 334]
READOUT UNIT: nM
IC50: 178
--
COMPOUND: NS(=O)(=O)c1ccccc1-c1ccc2[nH]c(/C=C/c3ccc(OC(F)(F)F)cc3)nc2c1 [Cpd 69]
READOUT UNIT: nM
IC50: 6

(1) CS(=O)(=O)Nc1ccccc1-c1ccc2[nH]c(/C=C/c3ccc(Cl)cc3)nc2c1 [Cpd 77]
(2) OCc1ccccc1-c1ccc2[nH]c(/C=C/c3ccc(SC(F)(F)F)cc3)nc2c1 [Cpd 35]
Please let me know which one, 1 or 2 , has a lower measured IC50 value. Refer to your chosen item by its label in the answer.
2
(2: 41 nM, 1: 76 nM)
